- measured.on: acetylcholine receptor
- experimental.details: SPR, AchR immobilized on CM5 chip, peptide 10 uM
Below, each entry is listed alongside its reported Binding affinity (RU).
Your reply should be a number followed by the unit it is expressed in.

binder	result
RRTNFK [6mer-1-751]	27 RU
KKTMEK [6mer-1-745]	11 RU
RRHAFK [6mer-1-796]	28 RU

Consider now this further binder.
Specify reported Binding affinity (RU) for the binder shown: KRPTEK [6mer-1-752]
16 RU

The reported numbers originate from patent US20250011363A1.
